- System: Mycolicibacterium smegmatis
- Test Name: Antibacterial activity against Mycobacterium smegmatis after 18 hrs by turbidity assay
- Type: functional, organism-based
Measured Endpoint: IC50 (µg/mL)

Compound: COC(=O)Cc1cc(OC)cc2c1C(=O)CC(CCCCC[C@H](C)OC(C)=O)O2 (mixture of isomers)
Test Target: Mycolicibacterium smegmatis
IC50 / µg/mL: 492
--
Compound: CCOC(=O)Cc1cc(O)cc2oc(CCCCC[C@H](C)O)cc(=O)c12
Test Target: Mycolicibacterium smegmatis
IC50 / µg/mL: 484

* * *

- System: Mycolicibacterium smegmatis
- Test Name: Antibacterial activity against Mycobacterium smegmatis after 18 hrs by turbidity assay
- Type: functional, organism-based
Measured Endpoint: IC50

Prompt line: Give IC50 for COC(=O)Cc1cc(OC)cc2oc(CCCCC[C@H](C)OC(C)=O)cc(=O)c12
Response line: > 500 µg/mL

Prompt line: Give IC50 for NC[C@H]1O[C@H](O[C@H]2[C@H](O)[C@@H](O[C@H]3O[C@H](CO)[C@@H](O)[C@H](N)[C@H]3O)[C@H](N)C[C@@H]2N)[C@H](O)[C@@H](O)[C@@H]1O
Response line: < 1 µg/mL

Prompt line: Give IC50 for COC(=O)Cc1cc(O)cc2oc(CCCCC[C@H](C)O)cc(=O)c12
Response line: > 500 µg/mL

Values were extracted from ChEMBL document CHEMBL3085722.
